Tested on: dog heart in situ
Assay: Antianginal activity: aortic-coronary sinus difference in oxygen (myocardial oxygen consumption) in anesthetized dogs
Format: in vivo
Details: 1 mg/kg i.v., 60 min
Structures can show the parent of a compound that is named as a salt.
VALUE TYPE: Arterio-Venous Difference in Oxygen Partial Pressure at 60 min (mmHg)
# unit: mmHg | format: bare number

Completed entries (count: 8):
c1ccc(Cn2c3c(c4ccccc42)CCN2CCC(Nc4ccccc4)CC32)cc1 (stereo not shown) [TR2981, dihydrochloride] ... 24
Brc1ccc(NC2CCN3CCc4c(n(Cc5ccccc5)c5ccccc45)C3C2)cc1.Cl.Cl (stereo not shown) ... 31
Cl.Cl.NC1CCN2CCc3c(n(Cc4ccccc4)c4ccccc34)C2C1.O (stereo not shown) ... 27
CC(C)NC1CCN2CCc3c(n(Cc4ccccc4)c4ccccc34)C2C1.Cl.Cl.O (stereo not shown) ... 23
Brc1cccc(NC2CCN3CCc4c(n(Cc5ccccc5)c5ccccc45)C3C2)c1.Cl (stereo not shown) ... 24
O=[N+]([O-])c1cccc(NC2CCN3CCc4c(n(Cc5ccccc5)c5ccccc45)C3C2)c1 (stereo not shown) ... 20
FC(F)(F)c1cccc(NC2CCN3CCc4c(n(Cc5ccccc5)c5ccccc45)C3C2)c1 (stereo not shown) [TR3633, dihydrochloride] ... 38
NS(=O)(=O)c1ccc(NC2CCN3CCc4c(n(Cc5ccccc5)c5ccccc45)C3C2)cc1 (stereo not shown) [TR3718, hydrochloride] ... 18

Q: Consider the compound CC(=O)Nc1ccc(NC2CCN3CCc4c(n(Cc5ccccc5)c5ccccc45)C3C2)cc1.Cl.Cl (stereo not shown) . State its measured Arterio-Venous Difference in Oxygen Partial Pressure at 60 min.
A: 26

Q: Consider the compound Cc1cccc(NC2CCN3CCc4c(n(Cc5ccccc5)c5ccccc45)C3C2)c1.Cl.Cl (stereo not shown) . State its measured Arterio-Venous Difference in Oxygen Partial Pressure at 60 min.
A: 25

Q: Consider the compound O=[N+]([O-])OCC(CO[N+](=O)[O-])O[N+](=O)[O-] [Nitroglycerin, nitroglycerin, reference compound] . State its measured Arterio-Venous Difference in Oxygen Partial Pressure at 60 min.
A: 20

Q: Consider the compound CC(=O)Nc1cccc(NC2CCN3CCc4c(n(Cc5ccccc5)c5ccccc45)C3C2)c1.O=C(O)C(=O)O (stereo not shown) . State its measured Arterio-Venous Difference in Oxygen Partial Pressure at 60 min.
A: 28

Q: Consider the compound COc1ccc(NC2CCN3CCc4c(n(Cc5ccccc5)c5ccccc45)C3C2)cc1.Cl.Cl (stereo not shown) . State its measured Arterio-Venous Difference in Oxygen Partial Pressure at 60 min.
A: 36

----------
Tested on: dog heart in situ
Test: Antianginal activity: aortic-coronary sinus difference in oxygen (myocardial oxygen consumption) in anesthetized dogs
Assay type: in vivo
Settings: 1 mg/kg i.v., 20 min
Counter-ions that a name gives are not always drawn.
The entries below are paired with their reported Arterio-Venous Difference in Oxygen Partial Pressure at 20 min.
# unit: mmHg | format: bare number

Completed entries (count: 8):
Brc1cccc(NC2CCN3CCc4c(n(Cc5ccccc5)c5ccccc45)C3C2)c1.Cl (stereo not shown) ... 25
COc1ccc(NC2CCN3CCc4c(n(Cc5ccccc5)c5ccccc45)C3C2)cc1.Cl.Cl (stereo not shown) ... 42
Brc1ccc(NC2CCN3CCc4c(n(Cc5ccccc5)c5ccccc45)C3C2)cc1.Cl.Cl (stereo not shown) ... 30
Cc1cccc(NC2CCN3CCc4c(n(Cc5ccccc5)c5ccccc45)C3C2)c1.Cl.Cl (stereo not shown) ... 23
O=[N+]([O-])c1cccc(NC2CCN3CCc4c(n(Cc5ccccc5)c5ccccc45)C3C2)c1 (stereo not shown) ... 17
c1ccc(Cn2c3c(c4ccccc42)CCN2CCC(Nc4ccccc4)CC32)cc1 (stereo not shown) [TR2981, dihydrochloride] ... 22
CC(C)NC1CCN2CCc3c(n(Cc4ccccc4)c4ccccc34)C2C1.Cl.Cl.O (stereo not shown) ... 20
O=[N+]([O-])OCC(CO[N+](=O)[O-])O[N+](=O)[O-] [Nitroglycerin, nitroglycerin, reference compound] ... 20

Q: Consider the compound CC(=O)Nc1cccc(NC2CCN3CCc4c(n(Cc5ccccc5)c5ccccc45)C3C2)c1.O=C(O)C(=O)O (stereo not shown) . State its measured Arterio-Venous Difference in Oxygen Partial Pressure at 20 min.
A: 28

Q: Consider the compound CC(=O)Nc1ccc(NC2CCN3CCc4c(n(Cc5ccccc5)c5ccccc45)C3C2)cc1.Cl.Cl (stereo not shown) . State its measured Arterio-Venous Difference in Oxygen Partial Pressure at 20 min.
A: 23

Q: Consider the compound Cl.Cl.NC1CCN2CCc3c(n(Cc4ccccc4)c4ccccc34)C2C1.O (stereo not shown) . State its measured Arterio-Venous Difference in Oxygen Partial Pressure at 20 min.
A: 28

Q: Consider the compound FC(F)(F)c1cccc(NC2CCN3CCc4c(n(Cc5ccccc5)c5ccccc45)C3C2)c1 (stereo not shown) [TR3633, dihydrochloride] . State its measured Arterio-Venous Difference in Oxygen Partial Pressure at 20 min.
A: 39

Q: Consider the compound NS(=O)(=O)c1ccc(NC2CCN3CCc4c(n(Cc5ccccc5)c5ccccc45)C3C2)cc1 (stereo not shown) [TR3718, hydrochloride] . State its measured Arterio-Venous Difference in Oxygen Partial Pressure at 20 min.
A: 16

----------
System: dog heart in situ
Assay: Antianginal activity: aortic-coronary sinus difference in oxygen (myocardial oxygen consumption) in anesthetized dogs
Assay type: in vivo
Details: 1 mg/kg i.v., 30 min
Where a name gives a salt, the structure may show the parent alone.
VALUE TYPE: Arterio-Venous Difference in Oxygen Partial Pressure at 30 min (mmHg)
# unit: mmHg | format: bare number

c1ccc(Cn2c3c(c4ccccc42)CCN2CCC(Nc4ccccc4)CC32)cc1 (centres unmarked) [TR2981, dihydrochloride] ... 23
FC(F)(F)c1cccc(NC2CCN3CCc4c(n(Cc5ccccc5)c5ccccc45)C3C2)c1 (centres unmarked) [TR3633, dihydrochloride] ... 36
NS(=O)(=O)c1ccc(NC2CCN3CCc4c(n(Cc5ccccc5)c5ccccc45)C3C2)cc1 (centres unmarked) [TR3718, hydrochloride] ... 16
Brc1cccc(NC2CCN3CCc4c(n(Cc5ccccc5)c5ccccc45)C3C2)c1.Cl (centres unmarked) ... 26

// switching to the query compound
Q: Consider the compound Cc1cccc(NC2CCN3CCc4c(n(Cc5ccccc5)c5ccccc45)C3C2)c1.Cl.Cl (centres unmarked) . State its measured Arterio-Venous Difference in Oxygen Partial Pressure at 30 min.
A: 25

----------
System: dog heart in situ
Test: Antianginal activity: aortic-coronary sinus difference in oxygen (myocardial oxygen consumption) in anesthetized dogs
Type: in vivo
Conditions: 1 mg/kg i.v., 40 min
Where a name gives a salt, the structure may show the parent alone.
Label 1 when Arterio-Venous Difference in Oxygen Partial Pressure at 40 min is at or above 20 mmHg; otherwise label 0.

NS(=O)(=O)c1ccc(NC2CCN3CCc4c(n(Cc5ccccc5)c5ccccc45)C3C2)cc1 (centres unmarked) [TR3718, hydrochloride] ... 0

Q: Answer whether Arterio-Venous Difference in Oxygen Partial Pressure at 40 min of CC(=O)Nc1cccc(NC2CCN3CCc4c(n(Cc5ccccc5)c5ccccc45)C3C2)c1.O=C(O)C(=O)O (centres unmarked) [TR3716] is greater than or equal to 20 mmHg.
A: 1

Q: Answer whether Arterio-Venous Difference in Oxygen Partial Pressure at 40 min of O=[N+]([O-])c1cccc(NC2CCN3CCc4c(n(Cc5ccccc5)c5ccccc45)C3C2)c1 (centres unmarked) [TR2998] is greater than or equal to 20 mmHg.
A: 0

Q: Answer whether Arterio-Venous Difference in Oxygen Partial Pressure at 40 min of O=[N+]([O-])OCC(CO[N+](=O)[O-])O[N+](=O)[O-] [Nitroglycerin, nitroglycerin, reference compound] is greater than or equal to 20 mmHg.
A: 1

Q: Answer whether Arterio-Venous Difference in Oxygen Partial Pressure at 40 min of CC(=O)Nc1ccc(NC2CCN3CCc4c(n(Cc5ccccc5)c5ccccc45)C3C2)cc1.Cl.Cl (centres unmarked) [TR3635] is greater than or equal to 20 mmHg.
A: 1

----------
Test system: dog heart in situ
Assay: Antianginal activity: aortic-coronary sinus difference in oxygen (myocardial oxygen consumption) in anesthetized dogs
Type: in vivo
Conditions: 1 mg/kg i.v., 40 min
Where a name gives a salt, the structure may show the parent alone.
The entries below are paired with their reported Arterio-Venous Difference in Oxygen Partial Pressure at 40 min.
# unit: mmHg | format: bare number

FC(F)(F)c1cccc(NC2CCN3CCc4c(n(Cc5ccccc5)c5ccccc45)C3C2)c1 (centres unmarked) [TR3633, dihydrochloride] ... 36
CC(C)NC1CCN2CCc3c(n(Cc4ccccc4)c4ccccc34)C2C1.Cl.Cl.O (centres unmarked) ... 20
Cc1cccc(NC2CCN3CCc4c(n(Cc5ccccc5)c5ccccc45)C3C2)c1.Cl.Cl (centres unmarked) ... 25
COc1ccc(NC2CCN3CCc4c(n(Cc5ccccc5)c5ccccc45)C3C2)cc1.Cl.Cl (centres unmarked) ... 38
Cl.Cl.NC1CCN2CCc3c(n(Cc4ccccc4)c4ccccc34)C2C1.O (centres unmarked) ... 29
Brc1ccc(NC2CCN3CCc4c(n(Cc5ccccc5)c5ccccc45)C3C2)cc1.Cl.Cl (centres unmarked) ... 32
c1ccc(Cn2c3c(c4ccccc42)CCN2CCC(Nc4ccccc4)CC32)cc1 (centres unmarked) [TR2981, dihydrochloride] ... 24

Q: Consider the molecule Brc1cccc(NC2CCN3CCc4c(n(Cc5ccccc5)c5ccccc45)C3C2)c1.Cl (centres unmarked) . State its measured Arterio-Venous Difference in Oxygen Partial Pressure at 40 min.
A: 26

Source listed as patent US4181657A.
